- assay: yeast display, Sf9 membrane polyspecificity reagent, FACS + sequencing; frameworks hold sequencing errors
readout.type: polyreactivity (PSR sort gate)

These recorded examples may help you get a feel for the data.
{"columns": ["residue.codes", "polyreactivity (PSR sort gate)"],
 "data": [
  ["QVQLVESGGGLVQAGGSLRLSCAASGSTFRDYAMGWYRQAPGKERELVAAITSGGTTDYADSVKGRFTISRYNAKNTVYLQMISLKPEDTAVYYCNKDGVVAGYQYDYWGQGTQVTVSS", "low polyreactivity"],
  ["QVQLVESGGGLVQAGGSLRLSCAASGFTFVYNAMGWYRQAPGKERELVAAITSGGNTYYADSVKGRFTISRDNAKNTVYLQMNSLKPEDTAVYYCAKVQNGQWSTSRVPGDYQYNYWGQGTQVTVSS", "high polyreactivity"],
  ["QVQLVESGGGLVQAGGSLRLSCAASGSIFGSYAMGWYRQAPGKERELVAVITSSGNTKYADSVKGRFTISRDNAKNTVYLQMNSLKPEDTAVYYCAARFITWCSQYSFRSMDYWGQGTQVTVSS", "high polyreactivity"],
  ["QVQLVESGGGLVQAGGSLRLSCAASGIIFYGYVMGWYRQAPGKERELVATITSSGGSTYYADSVKGRFTISRDNAKNTVYLQMNSLKPEDTAVYYCAAYYYYGAWVRHDYWGQGTQVTVSS", "low polyreactivity"]
]}

// moving on: another record for polyreactivity (PSR sort gate)
Look up polyreactivity (PSR sort gate) of `QVQLVESGGGLVQAGGSLRLSCAASGSIFASNTMGWYRQAPGKERELVAAISFRGGRTYYADSVKGRFTISRDNAKNTVYLQMNSLKPEDTAVYYCNAAYGRYPRGGYWGQGTQVTVSS` and report it.
high polyreactivity

The reported numbers originate from the nanobody polyreactivity screen of Harvey et al. (2022).
